Values from patent EP4725957A1

System: Acinetobacter baumannii NCTC 13304 (OXA-27)
Type: cell-based
Conditions: NCTC 13304
Bridge positions count the residues as written; N and C are the ends. Square brackets hold non-standard residues; d marks the D form. Peptide text beside a SMILES is read from it. * marks the point of attachment. Dab(CH2SO3H) = N[C@@H](CCNCS(=O)(=O)O)C(=O)O; Heptanoyl(6-Me) = CC(C)CCCCC(=O)*; dOrn = NCCC[C@@H](N)C(=O)O; Nonanoyl = CCCCCCCCC(=O)*; Dab = NCC[C@H](N)C(=O)O
Give measured MIC for each item. Keep answers brief.
Numbers only, in µg/mL.

CCCCCCCCC(=O)N[C@@H](CCN)C(=O)N[C@H](C(=O)N[C@H](CCCN)C(=O)N[C@H]1CCNC(=O)[C@H]([C@@H](C)O)NC(=O)[C@H](CCN)NC(=O)[C@H](CCN)NC(=O)[C@H](CC(C)C)NC(=O)[C@@H](Cc2ccccc2)NC(=O)[C@H](CCN)NC1=O)[C@@H](C)O [Compound 45] (Nonanoyl-[Dab]T[dOrn][Dab][Dab][dF]L[Dab][Dab]T; lactam 4-C) = 0.06

Now for a further molecule.
Q: MIC for CC(C)CCCCC(=O)N[C@@H](CCN)C(=O)N[C@H](C(=O)N[C@H](CO)C(=O)N[C@H]1CCNC(=O)[C@H]([C@@H](C)O)NC(=O)[C@H](CCNCS(=O)(=O)O)NC(=O)[C@H](CCN)NC(=O)[C@H]([C@@H](C)O)NC(=O)[C@@H](Cc2ccccc2)NC(=O)[C@H](CCN)NC1=O)[C@@H](C)O [Compound 111] ({Heptanoyl(6-Me)}-[Dab]T[dS][Dab][Dab][dF]T[Dab][Dab(CH2SO3H)]T; lactam 4-C) ?
Result: 0.06

###

Test system: Pseudomonas aeruginosa PAE19-3
Type: cell-based
Conditions: PAE19-3
Numbered stars: 1 amine (or outer) side, 2 acyl side, 3 side chain; on linkers, the order of the positions; unused ones are H or OH. Bridge positions count the residues as written; N and C are the ends. Square brackets hold non-standard residues; d marks the D form. Peptide text beside a SMILES is read from it. * marks the point of attachment. X3 = O=C([C@@H](Cc1ccc(CS(=O)(=O)O)cc1)N[*:1])[*:2]; Heptanoyl(6-Me) = CC(C)CCCCC(=O)*; X1 = CC[C@H](C)CCCCC(=O)*; Octanoyl = CCCCCCCC(=O)*; Dab = NCC[C@H](N)C(=O)O; Dap = NC[C@H](N)C(=O)O
Give measured MIC for each item. Keep answers brief.
Answers are plain numbers, in µg/mL.

Some molecules with recorded MIC:
CC(C)CCCCC(=O)N[C@@H](CCN)C(=O)N[C@H](C(=O)N[C@H](CO)C(=O)N[C@H]1CCNC(=O)[C@H]([C@@H](C)O)NC(=O)[C@H](CCN)NC(=O)[C@H](CCN)NC(=O)[C@H]([C@@H](C)O)NC(=O)[C@@H](Cc2ccc(CS(=O)(=O)O)cc2)NC(=O)[C@H](CCN)NC1=O)[C@@H](C)O [Compound 107] ({Heptanoyl(6-Me)}-[Dab]T[dS][Dab][Dab][X3]T[Dab][Dab]T; lactam 4-C) = 0.25
CCCCCCCC(=O)N[C@@H](CCN)C(=O)N[C@H](C(=O)N[C@H](CO)C(=O)N[C@H]1CCNC(=O)[C@H]([C@@H](C)O)NC(=O)[C@H](CN)NC(=O)[C@H](CCN)NC(=O)[C@H]([C@@H](C)O)NC(=O)[C@@H](Cc2ccccc2)NC(=O)[C@H](CCN)NC1=O)[C@@H](C)O [Compound 83] (Octanoyl-[Dab]T[dS][Dab][Dab][dF]T[Dab][Dap]T; lactam 4-C) = 64
CC[C@H](C)CCCCC(=O)N[C@@H](CCN)C(=O)N[C@H](C(=O)N[C@@H](CCN)C(=O)N[C@H]1CCNC(=O)[C@H]([C@@H](C)O)NC(=O)[C@H](CCN)NC(=O)[C@H](CCN)NC(=O)[C@H]([C@@H](C)O)NC(=O)[C@@H](Cc2ccccc2)NC(=O)[C@H](CCN)NC1=O)[C@@H](C)O [Compound 16] (X1-[Dab]T[Dab][Dab][Dab][dF]T[Dab][Dab]T; lactam 4-C) = 0.5
CC[C@H](C)CCCCC(=O)N[C@@H](CCN)C(=O)N[C@H](C(=O)N[C@@H](CN)C(=O)N[C@H]1CCNC(=O)[C@H]([C@@H](C)O)NC(=O)[C@H](CCN)NC(=O)[C@H](CCN)NC(=O)[C@H](CC(C)C)NC(=O)[C@@H](Cc2ccccc2)NC(=O)[C@H](CCN)NC1=O)[C@@H](C)O [Compound 36] (X1-[Dab]T[Dap][Dab][Dab][dF]L[Dab][Dab]T; lactam 4-C) = 0.25

Now for a further molecule.
Q: MIC for CC(C)CCCCC(=O)N[C@@H](CCN)C(=O)N[C@H](C(=O)N[C@H](CO)C(=O)N[C@H]1CCNC(=O)[C@H]([C@@H](C)O)NC(=O)[C@H](CCN)NC(=O)[C@H](CCN)NC(=O)[C@H]([C@@H](C)O)NC(=O)[C@@H](Cc2ccccc2)NC(=O)[C@H](CN)NC1=O)[C@@H](C)O [Compound 62] ({Heptanoyl(6-Me)}-[Dab]T[dS][Dab][Dap][dF]T[Dab][Dab]T; lactam 4-C) ?
Result: 4
